Tested on: Hypertensive Rat
Measurement protocol: Effects on blood pressure in the hypertensive rat (Grollman)
Type: in vivo
Parameters: key: 0: Not significant at any time interval; 1: Significant at one time interval; 2: Significant at two time intervals; 3: Significant at three time intervals; 4: Significant at all four time intervals
Study conditions: intraperitoneal, 1 mc/kg; 2, 4, 6 and 8 hours
Readout name: Blood Pressure Hypertensive Rat (value judgement, blood pressure decrease)
I'd appreciate a reply containing only the number, no unit.

Which value of Blood Pressure Hypertensive Rat (value judgement, blood pressure decrease) has been reported for CCCCC(C)(C)[C@@H](O)/C=C/[C@H]1[C@H](O)CC(=O)[C@@H]1CCCCOCCO (relative stereo) in the records? 1

Which value of Blood Pressure Hypertensive Rat (value judgement, blood pressure decrease) has been reported for O=C1CC(O)C(/C=C/[C@H](O)C2CCCCC2)C1CCCCOCCO (stereo partly shown) in the records? 2

Which value of Blood Pressure Hypertensive Rat (value judgement, blood pressure decrease) has been reported for CCCCC(C)(C)[C@H](O)/C=C/[C@H]1[C@H](O)CC(=O)[C@@H]1CCCCOCCO (relative stereo) in the records? 0

Which value of Blood Pressure Hypertensive Rat (value judgement, blood pressure decrease) has been reported for CCCCC[C@H](O)/C=C/[C@H]1[C@H](O)CC(=O)[C@@H]1CCCCOCCO in the records? 1

// provenance: patent US4158018A
